- Test system: IgG production by human lymphocytes
- Test: Inhibition of IgG production by human lymphocytes in vitro (SAC activation, ELISA)
- Assay type: cell-based
- Measurement Conditions: 1 × 10^-10 molar; 8 days; vehicle control 0.78 ± 0.09
Quantity Kind: IgG μg per culture (x ± S.E.M.) (μg per culture)
One number for each entry, in μg per culture.

Each molecule below has a recorded value; state its IgG μg per culture (x ± S.E.M.).
1. C=C1/C(=C\C=C2/CCC[C@]3(C)[C@@H]([C@H](C)/C=C/[C@H](C)[C@](C)(O)CO)CC[C@@H]23)C[C@@H](O)C[C@@H]1O [1α,25S,26-(OH)3 --D2, 1α,25S,26-Trihydroxyergocalciferol]
2. C=C1/C(=C\C=C2/CCC[C@]3(C)[C@@H]([C@H](C)C=CC[C@](C)(O)CO)CC[C@@H]23)C[C@@H](O)C[C@@H]1O [1α,25S,26-(OH)3 --Δ^22 -D3]
3. C=C1/C(=C\C=C2/CCC[C@]3(C)[C@@H]([C@H](C)CCCC(C)(C)O)CC[C@@H]23)C[C@@H](O)C[C@@H]1F [1α-F--25-OH--D3, 1α-Fluoro-25-hydroxycholecalciferol]
4. C=C1/C(=C\C=C2/CCC[C@]3(C)[C@@H]([C@H](C)C[C@H](O)CC(C)(C)O)CC[C@@H]23)C[C@@H](O)C[C@@H]1O [1α,23S,25-(OH)3 --D3, 1α,23S,25-Trihydroxycholecalciferol]

0.21
0.20
0.45
0.54
